Kindly supply the reported MIC values for the records listed here.
Tested on: Gibberella fujikuroi IAM 8046
ASSAY_OVERVIEW: antimicrobial activity, MIC
Type: cell-based
RUN_PARAMETERS: Fusarium fujikuroi, IAM8046, Gibberella fujikuroi IAM 8046; read-out: MIC
Provide only the numeric value, understood in µg/mL.

Check the records and state MIC for CCCOc1ccccc1C(=CSCCC)n1ccnc1 (single isomer, unassigned)
0.78

Check the records and state MIC for CCCCOc1ccccc1C(=CSCc1ccccc1)n1ccnc1 (single isomer, unassigned)
6.25

Check the records and state MIC for `CCOc1ccccc1C(=CSCc1ccccc1)n1ccnc1`
6.25

Check the records and state MIC for CCCCCSC=C(c1ccccc1OCC)n1ccnc1 (single isomer, unassigned)
0.39

Check the records and state MIC for CCCCCCOc1ccccc1C(=COC)n1ccnc1 (single isomer, unassigned)
6.25

Check the records and state MIC for CCCCCCOc1ccccc1C(=CCl)n1ccnc1 (single isomer, unassigned)
25

Check the records and state MIC for CCCCSC=C(c1ccccc1OCCC)n1ccnc1 (single isomer, unassigned)
0.39

* * *

Tested on: Trichophyton mentagrophytes QM 248
ASSAY_OVERVIEW: antimicrobial activity, MIC
Format: cell-based
RUN_PARAMETERS: Trichophyton mentagrophytes, QM248, Trichophyton mentagrophytes QM 248; read-out: MIC
EXPERIMENTAL_READOUT: MIC

Check the records and state MIC for `CCCCOc1ccccc1C(=C(Br)Br)n1ccnc1`
1.56 µg/mL

Check the records and state MIC for `CCOc1ccccc1C(=CSCc1ccccc1)n1ccnc1`
3.12 µg/mL

Check the records and state MIC for CCCCCCOc1ccccc1C(=CSC)n1ccnc1 (single isomer, unassigned)
< 0.2 µg/mL

Check the records and state MIC for CCCCSC=C(c1ccccc1OCCC)n1ccnc1 (single isomer, unassigned)
< 0.2 µg/mL

Check the records and state MIC for CCCCCSC=C(c1ccccc1OCC)n1ccnc1 (single isomer, unassigned)
< 0.2 µg/mL

Check the records and state MIC for CCCOc1ccccc1C(=CSCc1ccccc1)n1ccnc1 (single isomer, unassigned)
< 0.2 µg/mL

Check the records and state MIC for CCCCOc1ccccc1C(=CSCc1ccccc1)n1ccnc1 (single isomer, unassigned)
0.39 µg/mL

Check the records and state MIC for CCCCCCOc1ccccc1C(=CCl)n1ccnc1 (single isomer, unassigned)
< 0.2 µg/mL

* * *

Kindly supply the reported MIC values for the records listed here.
System: Microsporum gypseum IFO 8231
ASSAY_OVERVIEW: antimicrobial activity, MIC
Format: cell-based
RUN_PARAMETERS: Nannizzia gypsea, IFO8231, Microsporum gypseum IFO 8231; read-out: MIC
Provide only the numeric value, understood in µg/mL.

Check the records and state MIC for CCCCCCOc1ccccc1C(=COC)n1ccnc1 (single isomer, unassigned)
3.12

Check the records and state MIC for CCCOc1ccccc1C(=CSCCC)n1ccnc1 (single isomer, unassigned)
0.39

Check the records and state MIC for CCCCCCOc1ccccc1C(=CCl)n1ccnc1 (single isomer, unassigned)
1.56

Check the records and state MIC for CCCOc1ccccc1C(=CSc1ccccc1)n1ccnc1 (single isomer, unassigned)
6.25

* * *

Kindly supply the reported MIC values for the records listed here.
Tested on: Penicillium chrysogenum ATCC 6010
ASSAY_OVERVIEW: antimicrobial activity, MIC
Format: cell-based
RUN_PARAMETERS: Penicillium chrysogenum ATCC 6010
Provide only the numeric value, understood in µg/mL.

Check the records and state MIC for CCCOc1ccccc1C(=CSCc1ccccc1)n1ccnc1 (single isomer, unassigned) [Compound 4]
3.12

Check the records and state MIC for CCCOc1ccccc1C(=CSCc1ccccc1)n1ccnc1 (single isomer, unassigned) [Compound 3]
50

Check the records and state MIC for CCCOc1ccccc1C(=CSc1ccccc1)n1ccnc1 (single isomer, unassigned) [Compound 64]
12.5
